# target: HLA-A*32:01
# assay_summary: IEDB peptide-MHC binding, purified MHC/competitive/radioactivity; filed as Kd, often an IC50 or EC50 that approximates it; bounds were set here for any values at or beyond the usual limits of such assays
# experimental_context: source organism: Mammarenavirus whitewaterense
endpoint_name: Kd

Incoming: Which Kd value is on record for `ATTNAHCALL` ?
Outgoing: ≥ 69.9 µM

====

# target: HLA-A*31:01
# assay_summary: IEDB peptide-MHC binding, purified MHC/direct/fluorescence; filed as Kd, often an IC50 or EC50 that approximates it; bounds were set here for any values at or beyond the usual limits of such assays
# experimental_context: source organism: Influenza A virus (A/turkey/Minnesota/511/1978(H9N2))
endpoint_name: Kd

Incoming: Which Kd value is on record for `DLLENLQAY` ?
Outgoing: ≥ 20 µM
